- Test system: UACC-257
- Measurement Protocol: NCI tumour cell line growth inhibition, 48 h
Calls of active or inactive are those of the source. Cut-off read from the data, not from the text of the source: active = GI50 up to about 1.1 µM and inactive = higher.
Measured Property: GI50

# GI50 of O/N=C1\CC2(N3CCOCC3)CCC1(c1ccccc1)CC2 = > 100 µM (inactive)

# GI50 of CC1CC/C(=C\c2ccc(F)cc2)C(=O)/C1=C/c1ccc(F)cc1 (stereo not given) = 15.7 µM (inactive)

# GI50 of Cc1nnc2n1N=C(c1cc(F)c(Cl)cc1Cl)/C(=C/c1ccc(-c3ccc([N+](=O)[O-])cc3)o1)S2 = > 100 µM (inactive)

# GI50 of Cc1c(C#N)c2nnn(-c3ccccc3)c(=O)n2c1-c1ccccc1 = 25.4 µM (inactive)

# GI50 of Nc1nc(N)c2nc(CNc3ccc(C(=O)NC(CCC(=O)O)C(=O)O)cc3F)cnc2n1 (stereo not given) = > 100 µM (inactive)

# GI50 of COc1cccc(C2c3cc4c(cc3OC(NNC(N)=O)C2C)OCO4)c1OC (stereo not given) = 27.3 µM (inactive)

# GI50 of COc1cc(-c2c3c(cc4c2OCO4)[C@@H](Nc2ccc4c(c2)Cc2cc(N[C@@H]5c6cc7c(cc6C(c6cc(OC)c(O)c(OC)c6)[C@H]6C(=O)OC[C@H]56)OCO7)ccc2-4)[C@H]2COC(=O)[C@@H]2C3)cc(OC)c1O (stereo not given in full) = 48.8 µM (inactive)

# GI50 of CCc1nc(N)nc(N)c1-c1ccc2nnn(O)c2c1 = > 100 µM (inactive)

# GI50 of COc1cc2c3c(c1OC)C1(C=CC(=O)C=C1)C[C@H]3N(C)CC2 = > 100 µM (inactive)

# GI50 of CN1CN(c2ccccc2)C2(CCN(CCc3csc4ccccc34)CC2)C1=O = 14.4 µM (inactive)

# GI50 of CCCCCCCC(=O)OC[C@H](C[As](=O)(O)O)OC(=O)CCCCCCC = 12.8 µM (inactive)

# GI50 of COc1ccc(/N=N/c2c(C)c(C#N)c(=S)n(C3OC(COC(C)=O)C(OC(C)=O)C(OC(C)=O)C3OC(C)=O)c2-c2ccccc2)cc1 (stereo not given) = 22.4 µM (inactive)

# GI50 of Cn1c(=O)oc2cc(C(=S)N3CCC(Cc4ccccc4)CC3)ccc21 = > 100 µM (inactive)

# GI50 of CC1C2(C)OCC(C#N)(C(=N)O2)C1(C#N)C#N (stereo not given) = 23.9 µM (inactive)

# GI50 of COc1cc(OC)c2c(=O)c(O)c(-c3ccc(OC)c(OC)c3)oc2c1 = 5.25 µM (inactive)

----------
- Test system: SF-539
- Measurement Protocol: NCI tumour cell line growth inhibition, 48 h
Calls of active or inactive are those of the source. Cut-off read from the data, not from the text of the source: active = GI50 up to about 1.1 µM and inactive = higher.
Assignment: determine reported GI50 for the given compounds.

Fill in: SF-539 GI50 for CCN(CC)CCNc1ccc2ncn3c4ccc(OC)cc4c(=O)c1c23 = 4.24 µM (inactive)

Fill in: SF-539 GI50 for C=C1CC/C=C(\C)CCC[C@H](C)[C@@H](O)[C@@H]2OC(=O)C(=C)[C@@H]2C[C@H]1O = 2.27 µM (inactive)

Fill in: SF-539 GI50 for CCCCCCC(C)CC(CCCCCC)NCCOC(=O)c1ccc([N+](=O)[O-])cc1 (stereo not given) = 15.8 µM (inactive)

Fill in: SF-539 GI50 for CCCCNc1nc(O)c2[nH]cnc2n1 = > 100 µM (inactive)

Fill in: SF-539 GI50 for O=C(/C=C/c1ccc([N+](=O)[O-])cc1)N1CCN(CCOC(c2ccc(F)cc2)c2ccc(F)cc2)CC1 = 45.9 µM (inactive)

Fill in: SF-539 GI50 for COC(=O)C(CCSC)NC(=O)CNC(=O)CSc1nnc(COc2ccc(Cl)cc2)n1-c1ccccc1 (stereo not given) = 18.7 µM (inactive)

Fill in: SF-539 GI50 for N#CC(c1nc2ccccc2s1)c1ncnc(Cl)c1[N+](=O)[O-] (stereo not given) = 30.3 µM (inactive)

Fill in: SF-539 GI50 for CC(=O)OCC1OC(NC(=S)N/N=C2\CC(c3ccccc3)Oc3ccccc32)C(OC(C)=O)C(OC(C)=O)C1OC(C)=O (stereo not given) = > 100 µM (inactive)

Fill in: SF-539 GI50 for O=[N+]([O-])c1nccn1CC(O)CN1CC1 (stereo not given) = 55.6 µM (inactive)

Fill in: SF-539 GI50 for Nc1c(Cl)ncnc1NCCCNc1ncnc(Cl)c1N = > 100 µM (inactive)

----------
- Test system: MOLT-4
- Measurement Protocol: NCI tumour cell line growth inhibition, 48 h
Activity calls are given as the source filed them. No stated cut-off is given here; in the data, active = GI50 up to about 1.1 µM and inactive = higher.
Assignment: determine reported GI50 for the given compounds.

# GI50 of O=C1OC2CCCC[C@@H]2C2C[C@]34CCCCC3[C@@H](C(=O)O4)C12 (stereo partly specified) = > 100 µM (inactive)

# GI50 of O=C1Nc2cc([N+](=O)[O-])ccc2C(=O)N2CCC[C@@H]12 = > 100 µM (inactive)

# GI50 of O=C1c2ccccc2C2(Br)C(=O)c3ccccc3C12 (stereo unspecified) = > 100 µM (inactive)

# GI50 of COc1ccc([C@H]2CC(=O)C[C@H](c3ccc(OC)cc3)C23C(=O)c2ccccc2C3=O)cc1 = 4.79 µM (inactive)

# GI50 of O=C(O)CCCNc1ncc2c(n1)-c1ccccc1OC2 = > 100 µM (inactive)

# GI50 of COc1cc(CNc2ccc(C(C)C)cc2)cc(OC)c1OC = 22.4 µM (inactive)

----------
- System: M14
- Measurement Protocol: NCI tumour cell line growth inhibition, 48 h
Calls of active or inactive are those of the source. No stated cut-off is given here; in the data, active = GI50 up to about 1.1 µM and inactive = higher.
Assignment: determine reported GI50 for the given compounds.

# GI50 of COC(=O)C1(C(C)C)CCc2c(OC)ccc(OC)c2C1=O (centres undefined) = > 100 µM (inactive)

# GI50 of Cc1nnc2n1N=C(c1cc(F)c(Cl)cc1Cl)/C(=C/c1ccc(-c3ccc([N+](=O)[O-])cc3)o1)S2 = > 100 µM (inactive)

# GI50 of COC(=O)C(=O)CC(=O)c1cccc(OC)c1 = > 100 µM (inactive)

# GI50 of O=C1NC(=O)C2C(=O)NC(=O)C1C2Cc1ccco1 (centres undefined) = > 100 µM (inactive)

----------
- System: PC-3
- Measurement Protocol: NCI tumour cell line growth inhibition, 48 h
Calls of active or inactive are those of the source. Rule as the data show it: active = GI50 up to about 1.1 µM and inactive = higher.
Parameter call: string, one of 1 (yes) = active, 0 (no) = inactive

Ask: Tell me the recorded outcome of this test for COC(=O)C(CCSC)NC(=O)CSc1nnc(COc2ccc(Cl)cc2)n1-c1ccccc1 (stereo not given) .
Result: 0 (no)

Ask: Tell me the recorded outcome of this test for O=c1[nH]c(=O)n(C2CC(O)C(CO)O2)cc1Oc1ccccc1 (stereo not given) .
Result: 0 (no)

Ask: Tell me the recorded outcome of this test for C=CCC1(Sc2ccccn2)Sc2ccc3ccccc3c2-c2c(ccc3ccccc23)S1 .
Result: 0 (no)

Ask: Tell me the recorded outcome of this test for CCOC1C=CC(=O)C(CO)O1 (stereo not given) .
Result: 0 (no)

Ask: Tell me the recorded outcome of this test for COc1cc(/C=C2/C(=O)N(C(=O)c3ccccc3O)N=C2C)ccc1O .
Result: 1 (yes)

----------
- System: SK-MEL-28
- Measurement Protocol: NCI tumour cell line growth inhibition, 48 h
Activity calls are given as the source filed them. No stated cut-off is given here; in the data, active = GI50 up to about 1.1 µM and inactive = higher.
Measured Property: GI50

Fill in: SK-MEL-28 GI50 for NC(=S)Nc1nnc(-c2ccc(-c3nnc(NC(N)=S)o3)cc2)o1 = > 100 µM (inactive)

Fill in: SK-MEL-28 GI50 for COc1ccc(/N=N/c2c(C)c(C#N)c(=S)n(C3OC(COC(C)=O)C(OC(C)=O)C(OC(C)=O)C3OC(C)=O)c2-c2ccccc2)cc1 (stereo not drawn) = 7.98 µM (inactive)

Fill in: SK-MEL-28 GI50 for CN(C)c1c(Cl)c(=O)oc2c1ccc1nc(-c3ccccc3)sc12 = > 100 µM (inactive)

----------
- System: BT-549
- Measurement Protocol: NCI tumour cell line growth inhibition, 48 h
The source made the active and inactive calls. No stated cut-off is given here; in the data, active = GI50 up to about 1.1 µM and inactive = higher.
Measured Property: GI50

# GI50 of O=[N+]([O-])C(/C(Cl)=C(/Cl)N1CCOCC1)=C1\Nc2ccccc2O1 = > 100 µM (inactive)

# GI50 of CCC1([N+](=O)[O-])CC2C=CC1C2 (stereo not drawn) = > 100 µM (inactive)

# GI50 of Oc1ccc(-c2ccccc2)nn1 = > 100 µM (inactive)

----------
- System: SK-MEL-2
- Measurement Protocol: NCI tumour cell line growth inhibition, 48 h
Activity calls are given as the source filed them. No stated cut-off is given here; in the data, active = GI50 up to about 1.1 µM and inactive = higher.
Parameter call: string, one of 1 = active, -1 = inactive

Ask: Tell me the recorded outcome of this test for C[C@@H]1C(O)CC[C@H](C)C12CC=CC2=O (stereo partly specified) .
Result: -1

Ask: Tell me the recorded outcome of this test for CCC(C=O)P1(=O)OC(C)(C)CN1C(C)(C)C (stereo unspecified) .
Result: -1

Ask: Tell me the recorded outcome of this test for CC(C)(C)c1c2c(c(C(C)(C)C)c3c1OCN(Cc1ccccc1)C3)OCN(Cc1ccccc1)C2 .
Result: -1

Ask: Tell me the recorded outcome of this test for CSc1ccc2c(cc1=O)C(NC(=O)c1cc(O)c(OC(=O)O)c(O)c1)CCc1cc(O)c(O)c(O)c1-2 (stereo unspecified) .
Result: -1

Ask: Tell me the recorded outcome of this test for Nc1ncnn2c(C3OC(CO)C(O)C3O)ccc12 (stereo unspecified) .
Result: 1

Ask: Tell me the recorded outcome of this test for CC#Cc1ccc(-c2ccccc2)s1 .
Result: -1

Ask: Tell me the recorded outcome of this test for CCCCNc1nc(O)c2[nH]cnc2n1 .
Result: -1

Ask: Tell me the recorded outcome of this test for Cc1cccc(NC(=S)Nc2ccc(Cl)cc2)n1 .
Result: -1

Ask: Tell me the recorded outcome of this test for CC(=O)CC[N+](C)(C)C .
Result: -1

Ask: Tell me the recorded outcome of this test for Clc1cccc(C2N3CCCCC3[C@@H]3c4[nH]c5ccccc5c4CCN23)c1 (stereo partly specified) .
Result: -1

Ask: Tell me the recorded outcome of this test for O=C(O)Cc1nc[nH]c1C(=O)O .
Result: -1

Ask: Tell me the recorded outcome of this test for COc1cc2c(c(O)c1OC)C(=O)C1CCC(=O)N1C2c1cccc2ccccc12 (stereo unspecified) .
Result: -1

Ask: Tell me the recorded outcome of this test for Cc1ccc(S(=O)(=O)OC2CSSCC2OS(=O)(=O)c2ccc(C)cc2)cc1 (stereo unspecified) .
Result: -1

Ask: Tell me the recorded outcome of this test for CC1OC(=O)N2CCC=CC12 (stereo unspecified) .
Result: -1

Ask: Tell me the recorded outcome of this test for CCOP(=O)(OCC)c1c(C(=O)OC)cc(=O)[nH]c1-c1ccc(C)cc1 .
Result: -1

Ask: Tell me the recorded outcome of this test for O=c1[nH]c2cc(C(F)(F)F)ccc2nc1Cc1ccccc1 .
Result: -1

Ask: Tell me the recorded outcome of this test for CS/C(=N\C#N)NC1CC(n2cc(C)c(=O)[nH]c2=O)OC1CO (stereo unspecified) .
Result: -1

Ask: Tell me the recorded outcome of this test for CC(C)CCCC(C)[C@H]1CC[C@H]2NCCCC[C@]12C (stereo partly specified) .
Result: -1

Ask: Tell me the recorded outcome of this test for O=C(c1ccc(Cl)cc1)N(C(=S)N1CCN(c2ccccc2)CC1)c1ccccc1 .
Result: -1

Ask: Tell me the recorded outcome of this test for COc1ccc2cc(C(=O)Nc3ccc(O)c(C(=O)O)c3)ccc2c1OC .
Result: -1

Ask: Tell me the recorded outcome of this test for O=C1CC(C[C@H](O)C2CCCCC2O)CC(=O)N1Cc1ccccc1 (stereo partly specified) .
Result: -1
